# subject.of.test: S1P1 receptor (Homo sapiens, UniProt P21453)
# Sequence (P21453 whole entry): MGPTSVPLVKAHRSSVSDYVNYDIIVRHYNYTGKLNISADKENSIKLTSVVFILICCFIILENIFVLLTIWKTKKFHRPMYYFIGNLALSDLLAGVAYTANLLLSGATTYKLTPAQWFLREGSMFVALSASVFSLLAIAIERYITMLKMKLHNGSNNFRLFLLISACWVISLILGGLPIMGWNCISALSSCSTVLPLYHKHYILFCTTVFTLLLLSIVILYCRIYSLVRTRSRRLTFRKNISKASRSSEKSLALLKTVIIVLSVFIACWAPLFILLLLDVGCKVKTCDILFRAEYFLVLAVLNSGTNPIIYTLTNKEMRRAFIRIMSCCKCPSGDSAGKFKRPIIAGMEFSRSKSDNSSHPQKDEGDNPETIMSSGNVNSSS
# assay.remarks: HTRF assay for direct cAMP measurement (S1P1 agonism)
# measurement.conditions: recombinant CHO-K1 cells stably transfected with S1P1 receptors; decrease of cAMP
pEC50: −log10 of the molar value.
readout.label: pEC50

1) O=C(O)CC1CCc2c1[nH]c1ccc(OCc3ccc(C(F)(F)F)cc3C(F)(F)F)cc21 (stereo not drawn) = 8.05

A = O=C(O)CC1CCc2c1[nH]c1ccc(OCc3cc(C(F)(F)F)cc(C(F)(F)F)c3)cc21 (stereo not drawn)
B = N#Cc1cc(COc2ccc3[nH]c4c(c3c2)CCC4CC(=O)O)cc(OC(F)(F)F)c1 (stereo not drawn)
// compare measured pEC50 between A and B ; output the lower one To answer, give the label that identifies your chosen option.
A
(A: 7.59, B: 7.80)
